Entries and their pIC50
- System: HEK293
- ASSAY_NAME: Cytotoxicity against HEK293 cells infected with VSV-G protein pseudotyped HIV1
- Assay type: cell-based
- SETTINGS: Homo sapiens
pIC50: −log10 of the molar value.

Recorded results for 3 molecules are shown here.
SMILES_CODE	TEST_TARGET	pIC50
CC(=O)O[C@H]1C/C=C(\C)CC[C@@H]([C@H](C)CCC=C(C)C)[C@@H](O)/C=C/1C	HEK293	< 4.22
C=C1CC[C@@H](O)[C@@]2(C)C[C@@H](OC(C)=O)C3=C(C(C)C)CC[C@]3(C)C[C@]12O	HEK293	4.28
C=C1C[C@@H](O)[C@@H]([C@H](C)CCC=C(C)C)[C@@H](O)[C@@H]2C(C)=CC[C@@H]12	HEK293	< 4.22

[Q] # value lookup — system HEK293, readout pIC50, item C=C1CC[C@@H]([C@@](C)(O)CCC=C(C)C)[C@@H](O)[C@@H]2C(C)=CC[C@@H]12
[A] < 4.22

[Q] // query: CC(=O)OC[C@@H]1/C(C=O)=C\C/C=C(\C)C[C@@H](O)[C@H]1[C@H](C)CCC=C(C)C
[A] < 4.22

###

- System: HEK293
- ASSAY_NAME: Inhibition of Influenza A virus (A/Viet Nam/1203/2004(H5N1)) hemagglutinin-mediated entry in HEK293 cells compound pretreated with target cells for 15 mins prior infection measured 48 hrs post infection by luciferase reporter assay
- Type: cell-based
EXPERIMENTAL_ENDPOINT: inhibition (%)
Numeric only. Scale: %

Take a look at these entries with their results.
MOLECULE	inhibition (%)
CC(C)=CCC[C@@H](C)[C@@H]1[C@H](O)C/C(C)=C/C/C=C(/C=O)[C@H]1C=O	59
CC(C)=CCC[C@@H](C)[C@H]1C2=C(C(=O)OC2)[C@H]2C[C@H]2[C@H](C)C[C@H]1O	62
C=C1C[C@H](O)[C@@H]([C@@](C)(O)CCC=C(C)C)[C@@H](O)[C@@H]2C(C)=CC[C@@H]12	50

[Q] Entry C/C1=C/CC/C(C)=C/C[C@@]2(C)CC[C@@](O)(C(C)C)[C@@H]2CC1=O (relative stereo) , system HEK293: what inhibition was measured?
[A] 56

###

Reported values of IC50 for individual entries
- Tested on: Human immunodeficiency virus 1
- ASSAY_NAME: Antiviral activity against VSV-G protein pseudotyped HIV1 system in HEK293T cells assessed as reduction in p24 level after 48 hrs by ELISA
- Type: functional, organism-based
- SETTINGS: Human immunodeficiency virus 1, HEK-293T
Reply with a number, then the unit it belongs to.

Sample answers from the record:
SMILES_CODE	TEST_TARGET	IC50
C=C1CC[C@@H](O)[C@@]2(C)C[C@@H](OC(C)=O)C3=C(C(C)C)CC[C@]3(C)C[C@]12O	Human immunodeficiency virus 1	16.1 µM
CC(=O)O[C@H]1C/C=C(\C)CC[C@@H]([C@H](C)CCC=C(C)C)[C@@H](O)/C=C/1C	Human immunodeficiency virus 1	30.5 µM
C=C1C[C@@H](O)[C@@H]([C@H](C)CCC=C(C)C)[C@@H](O)[C@@H]2C(C)=CC[C@@H]12	Human immunodeficiency virus 1	26.1 µM
CC(=O)OC[C@@H]1/C(C=O)=C\C/C=C(\C)C[C@@H](O)[C@H]1[C@H](C)CCC=C(C)C	Human immunodeficiency virus 1	21.9 µM
C=C1CC[C@@H]([C@@](C)(O)CCC=C(C)C)[C@@H](O)[C@@H]2C(C)=CC[C@@H]12	Human immunodeficiency virus 1	24 µM

# evaluate next
[Q] IC50 for Cc1ccnc2c1NC(=O)c1cccnc1N2C1CC1 ?
[A] 0.05 µM

// data source = ChEMBL document CHEMBL3351586
